Exercise: for every item that follows, state its recorded inhibition.
- test: inhibition of Brca1/Bard1 split-luciferase complementation, confirmation, counter-screen for Mdm2/MdmX interaction inhibitor project, luminescence, single concentration (AID 504668)
- applied conditions: Brca1/Bard1 bimolecular luciferase complementation counterscreen, at 8 µM, stronger effect = higher value
Output spec: scalar in %, unitless text.

What does the data say about its inhibition? Entry: COc1ccc(C(O)(CC(C)C)C(CN2CCOCC2)c2ccccc2)cc1 (configuration not stated)
30.5

# repeat for CC(=O)NC(c1ccc(C)cc1)c1cc([N+](=O)[O-])c2cccnc2c1O (configuration not stated)
25

# repeat for CCc1ccc(/C=C/C(=O)c2c(C)cc(C)[nH]c2=O)cc1
30.6

# repeat for CCN1CCN(CCCNC(=O)c2ccc(/C=C3/Sc4ccccc4N(Cc4ccccc4F)C3=O)cc2)CC1
24.1

# repeat for Nc1cccc2nc3ccccc3cc12
32.2

# repeat for O=c1c2cc(Br)ccc2nc(-c2cccc(C(F)(F)F)c2)n1O
29.9

# repeat for Cc1nc2cc(-c3ccccc3)sc2c(=O)n1N
30

# repeat for Nc1ncnc(NCc2ccc(F)cc2)c1[N+](=O)[O-]
27

# repeat for O=C(CCl)Nc1cccc(CP(=O)(c2ccccc2)c2ccccc2)c1
27.6

# repeat for O=C(N/N=C/c1cc(Br)ccc1O)c1ccccc1Cl
35.3

# repeat for Cc1sc2ncnc(N3CCC(C(=O)N(C)CC(=O)Nc4ccc(Cl)c(C(F)(F)F)c4)CC3)c2c1C
29

# repeat for CN(C)CCNC(=O)/C(=C/c1ccc(-c2ccc(Cl)cc2Cl)o1)NC(=O)c1ccccc1
26.3

# repeat for Cc1cc(NC(=O)c2cncc(Br)c2)ccc1NC(=O)c1cc2ccccc2o1
28.6

# repeat for CC(C)Nc1ncnc2ccc(Br)cc12
24.8

# repeat for O=C(Nc1nc(-c2ccccn2)cs1)c1cccc(-n2cnnn2)c1
26.2

# repeat for O=C(CCl)Nc1cn(-c2ccccc2)nc1-c1ccc(F)cc1
32.9

# repeat for Cc1ccc(N=Nc2ccc(O)c3ncccc23)cc1C
25.6

* * *

- tested target: Tumor necrosis factor receptor superfamily member 10B (Homo sapiens) (UniProt O14763)
- Sequence (O14763 whole entry, looked up): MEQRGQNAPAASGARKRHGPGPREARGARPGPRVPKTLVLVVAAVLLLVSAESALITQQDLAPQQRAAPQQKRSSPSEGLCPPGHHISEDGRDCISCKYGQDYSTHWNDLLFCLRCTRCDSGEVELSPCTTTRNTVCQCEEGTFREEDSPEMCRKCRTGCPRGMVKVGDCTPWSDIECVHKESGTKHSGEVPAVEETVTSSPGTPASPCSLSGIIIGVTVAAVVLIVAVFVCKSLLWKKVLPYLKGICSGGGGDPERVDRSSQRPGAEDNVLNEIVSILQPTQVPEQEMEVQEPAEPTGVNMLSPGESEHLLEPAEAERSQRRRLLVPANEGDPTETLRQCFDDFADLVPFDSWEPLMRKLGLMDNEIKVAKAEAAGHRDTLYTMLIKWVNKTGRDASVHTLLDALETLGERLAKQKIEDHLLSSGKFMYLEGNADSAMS
- test: caspase-8 TRAIL sensitization, hit retest, confirmation, cell-based, NB7+caspase-8, with/without TRAIL, luminescence panel (AID 651596)
- applied conditions: NB7 neuroblastoma + caspase-8, TRAIL sensitization, luminescence viability, with TRAIL, mean of runs, at 10 µM, stronger effect = higher value
Exercise: for every item that follows, state its recorded activity.
Output spec: scalar in %, unitless text.

What does the data say about its activity? Entry: C/C(=N/NC(=O)c1cc(C2CC2)[nH]n1)c1cccs1
70.8

# repeat for Cc1ccc(C(C#N)=Cc2ccc3c(c2)OCO3)cc1
68.5

# repeat for Cc1cccc(NC(=O)c2cnc3ccccn3c2=O)c1
69

# repeat for COc1ccc2nc(Nc3ccccc3OC)sc2c1
68.3

* * *

- tested target: Tumor necrosis factor receptor superfamily member 10B (Homo sapiens)
- test: caspase-8 TRAIL sensitization, hit retest, confirmation, cell-based, NB7+caspase-8, with/without TRAIL, luminescence panel (AID 651596)
- applied conditions: NB7 neuroblastoma + caspase-8, TRAIL sensitization, luminescence viability, with TRAIL, mean of runs, at 10 µM, stronger effect = higher value
Exercise: for every item that follows, state its recorded activity.
Output spec: scalar in %, unitless text.

What does the data say about its activity? Entry: CCN1CCN(c2ccc(S(=O)(=O)N3CCCCC3)cc2NC(=O)c2ccc([N+](=O)[O-])o2)CC1
59.8

# repeat for Cc1ccc(-c2nnc(NC(=O)c3ccco3)s2)cc1
58.6

# repeat for CC(=C/c1ccccc1)/C=N/NC(=O)c1cc(C)oc1C
58.5

# repeat for CCOC(=O)c1nn(-c2ccc3c(c2)OCCO3)cc1O
60

# repeat for NC(Cc1ccc(Cl)cc1)c1csc(NC(=O)NCC2CCCCC2)n1 (stereo not given)
58.4

The values you see were collected from PubChem BioAssay.
